Test system: MDA-MB-231
TEST PROTOCOL: Crystal violet monolayer growth assay
Format: cell-based, human
PARTICULARS: Homo sapiens, MDA-MB-231, 168 h, after 7 days; read-out: IC50 of long-term proliferation
MEASURED ENDPOINT: IC50 (µM)
Response body: numeric value in µM, unit text excluded.

Quick one: IC50 for CC1=C[C@H](O/C=C2/C(=O)O[C@@H]3c4ccccc4C[C@H]23)OC1=O (relative stereo) ? 22.1

----------
Tested on: DU145
TEST PROTOCOL: XTT viability assay
Type: cell-based, human
PARTICULARS: DU145, 3 days
For each of the compounds below, state its IC50 at 72 h.
Response body: numeric value in ppm, unit text excluded.

Quick one: IC50 at 72 h for CC1=CC(O/C=C2\Cc3c(n(C)c4cc(-c5cccs5)ccc34)C2=O)OC1=O (racemic) [MEB-55] ? 12.8

What about this compound? CC1=CC(O/C=C2\Cc3c(n(C)c4ccc(-c5ccc(N(C)C)cc5)cc34)C2=O)OC1=O (racemic) [EG-9c] 15

What about this compound? CC1=CC(O/C=C2/C(=O)c3c(c4cc(-c5scc6c5OCCO6)ccc4n3C)C2C)OC1=O (centres unmarked) [ST-362] 7.5
